The following binders are shown together with reported OD450 nm values.
target: T1, human GPC3-His protein (human, UniProt P51654 25-559); assay: ELISA, coated human GPC3, antibody 100 nM;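 note: antibodies bound to antigen-coated 96-well plates (1 µg/mL), 2 h at 37 °C, detected with HRP-labelled secondary antibody and TMB substrate, absorbance read at 450 nm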
T1 construct: Bought protein; also called human GPC3 protein; not shown: His tag
Your answer is read as OD450, so omit the unit and give the number.

The cases that follow already have their OD450 nm on record.
{"binder": "F2.23.8 human-murine chimeric antibody (antibody, human IgG1, kappa, V domains shown) VH: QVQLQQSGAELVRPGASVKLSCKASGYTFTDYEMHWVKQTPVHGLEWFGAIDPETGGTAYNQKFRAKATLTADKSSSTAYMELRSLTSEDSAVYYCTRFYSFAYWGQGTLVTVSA VL: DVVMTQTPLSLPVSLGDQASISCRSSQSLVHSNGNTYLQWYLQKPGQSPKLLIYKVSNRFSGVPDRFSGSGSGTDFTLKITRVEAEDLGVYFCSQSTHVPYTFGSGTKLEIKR", "units_symbol": "OD450", "OD450 nm": 2.51}
{"binder": "F2.169.2 human-murine chimeric antibody (antibody, human IgG1, kappa, V domains shown) VH: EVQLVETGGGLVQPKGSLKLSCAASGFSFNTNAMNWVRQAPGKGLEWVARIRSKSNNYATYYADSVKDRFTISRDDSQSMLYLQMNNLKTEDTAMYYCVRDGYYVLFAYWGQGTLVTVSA VL: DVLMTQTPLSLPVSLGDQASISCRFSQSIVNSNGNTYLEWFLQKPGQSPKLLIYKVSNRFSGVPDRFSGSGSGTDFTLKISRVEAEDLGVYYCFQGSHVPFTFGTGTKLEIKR", "units_symbol": "OD450", "OD450 nm": 2.43}
{"binder": "F3.38.7 human-murine chimeric antibody (antibody, human IgG1, kappa, V domains shown) VH: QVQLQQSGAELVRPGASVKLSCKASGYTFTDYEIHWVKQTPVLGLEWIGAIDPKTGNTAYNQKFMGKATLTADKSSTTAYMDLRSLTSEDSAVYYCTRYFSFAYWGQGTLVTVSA VL: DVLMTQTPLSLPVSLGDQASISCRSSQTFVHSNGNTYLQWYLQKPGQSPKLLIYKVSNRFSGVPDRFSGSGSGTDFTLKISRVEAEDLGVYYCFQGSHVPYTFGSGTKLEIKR", "units_symbol": "OD450", "OD450 nm": 2.48}
{"binder": "F1.62.9 human-murine chimeric antibody (antibody, human IgG1, kappa, V domains shown) VH: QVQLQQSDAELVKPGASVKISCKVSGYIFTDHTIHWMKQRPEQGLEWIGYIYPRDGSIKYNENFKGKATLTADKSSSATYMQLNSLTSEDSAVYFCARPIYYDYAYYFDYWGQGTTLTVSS VL: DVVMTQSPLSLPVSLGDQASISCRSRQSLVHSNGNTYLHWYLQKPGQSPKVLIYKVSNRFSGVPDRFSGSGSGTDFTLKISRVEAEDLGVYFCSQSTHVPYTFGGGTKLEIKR", "units_symbol": "OD450", "OD450 nm": 1.09}

Incoming: What does the record list as OD450 nm for F3.81.19 human-murine chimeric antibody (antibody, human IgG1, kappa, V domains shown) VH: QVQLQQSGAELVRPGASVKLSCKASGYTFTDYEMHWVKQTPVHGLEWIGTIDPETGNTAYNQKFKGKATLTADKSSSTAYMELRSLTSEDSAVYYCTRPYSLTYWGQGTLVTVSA VL: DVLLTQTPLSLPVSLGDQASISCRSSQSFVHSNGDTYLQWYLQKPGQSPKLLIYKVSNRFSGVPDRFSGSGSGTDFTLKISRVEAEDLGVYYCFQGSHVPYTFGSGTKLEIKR ?
Outgoing: 2.45

Incoming: What does the record list as OD450 nm for F2.39.2 human-murine chimeric antibody (antibody, human IgG1, kappa, V domains shown) VH: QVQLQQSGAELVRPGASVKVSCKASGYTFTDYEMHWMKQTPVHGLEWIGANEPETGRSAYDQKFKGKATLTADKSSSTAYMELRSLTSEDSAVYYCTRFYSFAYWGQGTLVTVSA VL: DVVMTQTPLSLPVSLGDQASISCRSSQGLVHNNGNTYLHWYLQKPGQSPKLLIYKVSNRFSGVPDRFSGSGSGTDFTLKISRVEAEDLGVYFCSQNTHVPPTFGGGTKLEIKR ?
Outgoing: 2.3

Incoming: What does the record list as OD450 nm for F2.154.1 human-murine chimeric antibody (antibody, human IgG1, kappa, V domains shown) VH: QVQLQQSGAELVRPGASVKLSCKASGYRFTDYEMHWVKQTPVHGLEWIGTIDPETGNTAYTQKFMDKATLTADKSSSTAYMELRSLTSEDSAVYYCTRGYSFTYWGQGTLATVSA VL: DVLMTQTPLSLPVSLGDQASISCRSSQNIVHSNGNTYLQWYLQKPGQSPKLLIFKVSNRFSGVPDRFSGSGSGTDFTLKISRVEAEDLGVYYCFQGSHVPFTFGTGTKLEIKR ?
Outgoing: 2.61
